# Stated Conditions: buffer; pH 7.4; 200.0 µM
Given measured solubility kinetic, output y if it is greater than or equal to 6 µg/mL and n if not.

Query: Form field: solubility kinetic at least 6 µg/mL? Entry: Cc1ccccc1NC(=S)NC(=O)/C=C/c1ccco1
Reply: y

Query: Form field: solubility kinetic at least 6 µg/mL? Entry: O=C(NC1CCCCC1)c1cc(-c2ccc(Cl)cc2)on1
Reply: n

Query: Form field: solubility kinetic at least 6 µg/mL? Entry: O=C(CCN1C(=O)c2ccccc2C1=O)NCc1ccc(F)cc1
Reply: y

Query: Form field: solubility kinetic at least 6 µg/mL? Entry: Cc1cccc(C)c1NC(=O)CN1CCCC1
Reply: y

Query: Form field: solubility kinetic at least 6 µg/mL? Entry: Cc1cc(NC(=O)CSc2nnc(C)n2-c2ccccc2C)no1
Reply: y

Query: Form field: solubility kinetic at least 6 µg/mL? Entry: NC(N)=Nc1nc2cc([N+](=O)[O-])ccc2o1
Reply: y

Query: Form field: solubility kinetic at least 6 µg/mL? Entry: Cc1ccc(NC(=O)COCC(=O)Nc2ccc(F)cc2)cc1
Reply: y

Query: Form field: solubility kinetic at least 6 µg/mL? Entry: O=C(c1csc(Nc2cccc3ccccc23)n1)N1CCCC1
Reply: y

Query: Form field: solubility kinetic at least 6 µg/mL? Entry: O=C(C1CCCCC1)N1CCc2[nH]c3ccc(F)cc3c2C1
Reply: n

Query: Form field: solubility kinetic at least 6 µg/mL? Entry: CCN(C(=O)CSc1nnc(-c2ccc(OC)cc2)n1C(C)C)C1CCS(=O)(=O)C1 (configuration not stated)
Reply: y

Query: Form field: solubility kinetic at least 6 µg/mL? Entry: COc1ccccc1CNc1ccc2c(c1)CCC2
Reply: y

Query: Form field: solubility kinetic at least 6 µg/mL? Entry: COc1cccc(CNC(=O)CCNC(=O)c2ccco2)c1
Reply: y
